target: E3 ubiquitin-protein ligase SIAH1 (Homo sapiens) (UniProt Q8IUQ4); experiment: inhibitors of Siah-1 ligand interaction – biochemical, TR-FRET, dose response (AID 2141); conditions: TR-FRET biochemical assay, Siah-1 binding
Calls of active or inactive are those of the source. How the calls were made is not given here.
Outcomes: YES for active, NO for inactive

>  <Compound>
COc1cccc(CCC(=O)N(C)C2CCCN(Cc3ccccc3F)C2)c1 (configuration not stated)

>  <Assigned class>
NO

$$$$
>  <Compound>
O=C(Nc1cccc(Oc2ccc(C(=O)O)c(C(=O)O)c2)c1)c1ccc(-c2ccccc2)cc1

>  <Assigned class>
YES

$$$$
>  <Compound>
CCCCn1c(NS(=O)(=O)c2ccc(C)cc2)c(S(=O)(=O)c2ccccc2)c2nc3ccccc3nc21

>  <Assigned class>
YES

$$$$
>  <Compound>
Cc1cc(C)n(-c2ccc(Cl)c(C(=O)Nc3cc(C(F)(F)F)ccc3Cl)n2)n1

>  <Assigned class>
NO

$$$$
>  <Compound>
COc1ccc(C(C(=O)NCc2ccccc2)N(Cc2ccco2)C(=O)c2cnccn2)cc1 (configuration not stated)

>  <Assigned class>
NO

$$$$
>  <Compound>
COc1ccc(-c2cnnn2-c2ccc(N)cc2)cc1OC

>  <Assigned class>
NO

$$$$
>  <Compound>
Cc1ccc(C(=O)COc2ccccc2C(=O)Nc2ccccc2)cc1

>  <Assigned class>
NO

$$$$
>  <Compound>
O=C(CSc1ccc(Br)c2cccc(Cl)c12)Nc1ccc(S(=O)(=O)Nc2nccs2)cc1

>  <Assigned class>
NO

$$$$
>  <Compound>
CCOC(=O)c1c(C)[nH]c2c1-c1ccccc1C(=O)C2=O

>  <Assigned class>
NO

$$$$
>  <Compound>
CN1/C(=C\C=C\C2=[N+](C)c3ccc4ccccc4c3C2(C)C)C(C)(C)c2ccccc21

>  <Assigned class>
NO

$$$$
>  <Compound>
CCOC(=O)C1=C(C)N=c2s/c(=C\c3ccc(OCC(=O)O)cc3)c(=O)n2C1c1ccc(Cl)cc1 (configuration not stated)

>  <Assigned class>
NO

$$$$
>  <Compound>
Cc1ccc(C(=O)NC2CC3CCCC(C2)N3C(=O)NC2CCCCC2)cc1 (configuration not stated)

>  <Assigned class>
NO

$$$$
>  <Compound>
NS(=O)(=O)c1ccc(NS(=O)(=O)c2ccc(NC(=O)c3ccc(-c4ccccc4)cc3)cc2)cc1

>  <Assigned class>
YES

$$$$
>  <Compound>
COc1cc(CC(=O)NCc2ccc3c(c2)OCO3)cc(OC)c1OC

>  <Assigned class>
NO

$$$$
>  <Compound>
O=C(O)c1cc(O)c2c(c1)C(=O)c1cccc(O)c1C2=O

>  <Assigned class>
NO

$$$$
>  <Compound>
Cc1ccccc1NC(=O)CN1C(=O)N/C(=C\c2ccccc2OCc2ccc(C(=O)O)cc2)C1=O

>  <Assigned class>
YES

$$$$
>  <Compound>
Nc1ccc(O)c2c1C(=O)c1ccccc1C2=O

>  <Assigned class>
YES

$$$$
>  <Compound>
O=S(=O)(O)c1cc(O)c2c(O)c(N=Nc3cc(Cl)ccc3O)c(S(=O)(=O)O)cc2c1

>  <Assigned class>
YES

$$$$
>  <Compound>
CC(C)(C)c1ccc(C(CC(=O)O)NC(=O)Cc2ccc(F)cc2)cc1 (configuration not stated)

>  <Assigned class>
YES

$$$$
>  <Compound>
O=C(N/N=C/c1cccc(Br)c1)c1ccc(Br)cc1

>  <Assigned class>
YES

$$$$
>  <Compound>
CCC(C)N1C(=O)/C(=C/c2c(NCCCOC(C)C)nc3c(C)cccn3c2=O)SC1=S (configuration not stated)

>  <Assigned class>
NO

$$$$
>  <Compound>
CCNc1ccc(C(=O)O)cc1N

>  <Assigned class>
YES

$$$$
>  <Compound>
CCCCNc1nnc(Cc2ccc(Cl)cc2)c(=O)[nH]1

>  <Assigned class>
NO

$$$$
>  <Compound>
Cc1ccc2c(c1)N(CC(=O)NCCc1ccc(Cl)cc1)C(=O)c1cccnc1O2

>  <Assigned class>
NO

$$$$
>  <Compound>
O=C(O)CCCCN1C(=O)/C(=C\c2ccc(OCc3ccccc3)c(OCc3ccccc3)c2)SC1=S

>  <Assigned class>
YES

$$$$
>  <Compound>
O=C(Nc1ccc(S(=O)(=O)N2CCOCC2)cc1)c1ccc(=O)[nH]c1

>  <Assigned class>
YES

$$$$
>  <Compound>
O=C(Nc1ccc(Cl)cc1)c1ccc(S(=O)(=O)N2CCOCC2)cc1

>  <Assigned class>
NO

$$$$
>  <Compound>
Cc1ccn2c(C(=O)CSc3ccc(Cl)cc3Cl)c(C)nc2c1

>  <Assigned class>
NO

$$$$
>  <Compound>
Fc1ccc(/C=N/NC(=S)Nc2cccnc2)cc1F

>  <Assigned class>
NO

$$$$
>  <Compound>
O=C(N/N=C/c1ccc(OC(=O)c2cccs2)cc1)c1cccc(F)c1

>  <Assigned class>
YES

$$$$
>  <Compound>
C=C(C)Cn1c(N2CCN(CC)CC2)nc2c1c(=O)[nH]c(=O)n2C

>  <Assigned class>
NO

$$$$
>  <Compound>
Cc1ccc(NC(=O)CCC(=O)NNC(=O)c2ccccc2[N+](=O)[O-])c(C)c1

>  <Assigned class>
NO

$$$$
>  <Compound>
N#CC1C=Cc2ccccc2N1C(=O)c1ccccc1 (configuration not stated)

>  <Assigned class>
NO

$$$$
>  <Compound>
CCn1c(O)c(C=Nc2ccc(N3CCOCC3)cc2)c(=O)n(CC)c1=S

>  <Assigned class>
NO

$$$$
>  <Compound>
O=C(CCn1ccc2ccccc21)NC1CCCc2ccccc21 (configuration not stated)

>  <Assigned class>
NO

$$$$
>  <Compound>
O=C(Nc1ccccc1N1CCCCC1)c1ccc(-c2cccc(Cl)c2)o1

>  <Assigned class>
NO

$$$$
>  <Compound>
COc1cc(/C=C(\C#N)c2nc3ccccc3[nH]2)ccc1OC(=O)c1ccco1

>  <Assigned class>
YES

$$$$
>  <Compound>
COc1cc(/C=C2/SC(=S)N(Cc3ccccc3)C2=O)cc(Cl)c1O

>  <Assigned class>
NO

$$$$
>  <Compound>
O=C(O)c1ccc(/C=N/NC(=O)c2ccc(CN3c4cccc5cccc(c45)S3(=O)=O)cc2)cc1

>  <Assigned class>
YES

$$$$
>  <Compound>
Cc1ccccc1-c1nc2c3ccccc3nc(=S)n2[nH]1

>  <Assigned class>
NO

$$$$
>  <Compound>
CC1CCCCC1NC(=O)CCS(=O)(=O)c1ccc2c(c1)NC(=O)CO2 (configuration not stated)

>  <Assigned class>
NO

$$$$
>  <Compound>
c1ccc(C(c2ccccc2)N2CCN(C(c3ccccn3)c3nnnn3C3CCCC3)CC2)cc1 (configuration not stated)

>  <Assigned class>
NO

$$$$
